Examples of molecules with documented EC50 follow.
- Test system: RSV A2 strain
- Experiment: In vitro CPE (CytoPathic Effect) inhibition effect evaluation test, RSV type A
- Assay type: cell-based
- Test context: human respiratory syncytial virus; inhibitory effect against RSV type A (RSV A2 strain), HEp-2 cells, CPE inhibition; read-out: EC50
Observed property: EC50

# Molecule, Observed property, Observed measurement
rows = [
    ("CC(C)(C)C[C@@H](NC(=O)c1cnc(-c2cn(C3CCC(F)(F)CC3)c3cc(OC4CCN(c5ncccn5)CC4)ccc23)nc1C(F)(F)F)C(=O)O", "EC50", "< 10 nM"),
    ("O=C(NC1(C(=O)O)C2CC3CC(C2)CC1C3)c1cnc(-c2cn(C3CCC(F)(F)CC3)c3cc(OC4CCN(C(=O)c5ncccn5)CC4)ccc23)nc1C(F)(F)F (stereo not drawn)", "EC50", "10 to 100 nM"),
    ("CC(F)(F)c1nc(N2CC3(CCOCC3)c3cc(OC4CCC5(CC4)COC5)ccc32)ncc1C(=O)NC1(C(=O)O)C2CC3CC(C2)CC1C3 (stereo not drawn)", "EC50", "< 10 nM"),
]

----------
- Tested on: RSV A2 strain
- Experiment: In vitro CPE (CytoPathic Effect) inhibition effect evaluation test, RSV type A
- Format: cell-based
- Test context: human respiratory syncytial virus; inhibitory effect against RSV type A (RSV A2 strain), HEp-2 cells, CPE inhibition; read-out: EC50
pEC50: −log10 of the molar value.
Observed property: pEC50

# Compound, Observed property, Observed measurement
data = [
    ("O=C(NC1(C(=O)O)C2CC3CC(C2)CC1C3)c1cnc(N2CC3(CCCC3)c3cc(OC4CCC5(CC4)COC5)ccc32)nc1C(F)(F)F (stereo not drawn)", "pEC50", "> 8.00"),
    ("O=C(NC1(C(=O)O)CCCC1)c1cnc(N2CCc3cc(OC4CCN(c5ncccn5)CC4)ccc32)nc1C(F)(F)F", "pEC50", "> 8.00"),
    ("N#C[C@H]1CC[C@H](n2cc(-c3ccc(C(=O)NC4(C(=O)O)C5CC6CC(C5)CC4C6)c(C(F)(F)F)n3)c3ccc(OC4CCN(c5ncccn5)CC4)cc32)CC1 (stereo partly drawn)", "pEC50", "> 8.00"),
    ("O=C(NC1(C(=O)O)C2CC3CC(C2)CC1C3)c1cnc(N2CCc3cc(OCCC4CCOCC4)ccc32)nc1C(F)(F)C(F)(F)F (stereo not drawn)", "pEC50", "> 8.00"),
    ("O=C(NC1(C(=O)O)C2CC3CC(C2)CC1C3)c1cnc(N2CC3(CCOCC3)c3cc(OCCC(F)(F)F)ccc32)nc1C(F)(F)F (stereo not drawn)", "pEC50", "> 8.00"),
    ("O=C(NC1(C(=O)O)C2CC3CC(C2)CC1C3)c1ccc(-c2cn([C@H]3CC[C@@H](C(F)(F)F)CC3)c3cc(OC4CCN(c5ncccn5)CC4)ccc23)nc1C(F)(F)F (stereo partly drawn)", "pEC50", "> 8.00"),
    ("N#CCN1CCC(Oc2ccc3c(c2)C2(CCCCC2)CN3c2ncc(C(=O)NC3(C(=O)O)C4CC5CC(C4)CC3C5)c(C(F)(F)F)n2)CC1 (stereo not drawn)", "pEC50", "> 8.00"),
    ("O=C(NC1(C(=O)O)CCCCC1)c1cnc(N2CCc3cc(OCCC4CCOCC4)ccc32)nc1C(F)(F)F", "pEC50", "7.00 to 8.00"),
    ("NCCc1nc(N2CCc3cc(OCCC4CCOCC4)ccc32)nc(C(F)(F)F)c1C(=O)NC1(C(=O)O)C2CC3CC(C2)CC1C3 (stereo not drawn)", "pEC50", "5.30 to 7.00"),
    ("O=C(NC1(C(=O)O)C2CC3CC(C2)CC1C3)c1cnc(-c2cn(C3CCOCC3)c3cc(OCCC4CCOCC4)ccc23)nc1C(F)(F)F (stereo not drawn)", "pEC50", "> 8.00"),
    ("O=C(NC1(C(=O)O)C2CC3CC(C2)CC1C3)c1cnc(N2CC3(CCOCC3)c3cc(OC4CCC(n5cccn5)CC4)ccc32)nc1C(F)(F)F (stereo not drawn)", "pEC50", "> 8.00"),
    ("CC(F)(F)c1nc(N2CC3(CCCCC3)c3cc(O[C@H]4CC[C@H](n5ccnn5)CC4)ccc32)ncc1C(=O)NC1(C(=O)O)C2CC3CC(C2)CC1C3 (stereo partly drawn)", "pEC50", "> 8.00"),
]

Data credit: patent US12528790B2
